Hello, the source for this data is the supplement of paper PMC6555819, in case you need it.

- Tested on: PPARg:RXRa 90nM:30nM, anti-RXR (NR concentration 90 nM, RXRa partner concentration 30 nM)
- TEST NAME: PBM binding z-score (relative to random genomic background probes); higher = stronger binding; sequences stand for … in GC…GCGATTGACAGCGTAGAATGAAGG
Respond with TRUE for PBM binding z-score values of 1 and above, FALSE for values below.

Observe how each entry below is paired with its result.
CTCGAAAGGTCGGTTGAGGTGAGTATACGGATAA
FALSE
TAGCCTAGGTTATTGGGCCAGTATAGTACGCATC
FALSE
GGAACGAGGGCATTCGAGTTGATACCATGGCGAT
FALSE
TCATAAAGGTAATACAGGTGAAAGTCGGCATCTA
TRUE
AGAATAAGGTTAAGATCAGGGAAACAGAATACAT
TRUE

Okay, next one:
Ask: Determine whether this sequence has PBM binding z-score no lower than 1: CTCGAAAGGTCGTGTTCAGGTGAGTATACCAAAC
Reply: TRUE

---

Documented PBM binding z-score across a set of sequences
- Tested on: PPARg homodimer (NR concentration 180 nM)
- TEST NAME: PBM binding z-score (relative to random genomic background probes); higher = stronger binding; sequences stand for … in GC…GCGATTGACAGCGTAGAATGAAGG
Answer as a number with no unit attached.

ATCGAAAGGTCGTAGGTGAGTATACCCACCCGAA
1.97
TCTAGTTGGTCAAAGGTCACAAACTCGAAATGCG
3.78
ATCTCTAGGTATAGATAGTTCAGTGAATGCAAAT
0.546

Ask: Which PBM binding z-score value is on record for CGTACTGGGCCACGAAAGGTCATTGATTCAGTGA ?
Reply: 4.05

Ask: Which PBM binding z-score value is on record for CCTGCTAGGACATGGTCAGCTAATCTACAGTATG ?
Reply: -0.902

Ask: Which PBM binding z-score value is on record for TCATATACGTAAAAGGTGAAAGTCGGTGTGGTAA ?
Reply: 1.84

Ask: Which PBM binding z-score value is on record for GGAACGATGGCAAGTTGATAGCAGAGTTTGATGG ?
Reply: -1.16

Ask: Which PBM binding z-score value is on record for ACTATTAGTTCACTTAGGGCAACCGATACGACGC ?
Reply: 0.741

Ask: Which PBM binding z-score value is on record for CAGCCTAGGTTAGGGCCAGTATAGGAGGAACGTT ?
Reply: -1.26

Ask: Which PBM binding z-score value is on record for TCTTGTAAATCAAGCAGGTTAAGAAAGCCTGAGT ?
Reply: -0.337

Ask: Which PBM binding z-score value is on record for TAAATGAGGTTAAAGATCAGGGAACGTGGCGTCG ?
Reply: 1.72

---

- Test system: VDR homodimer (NR concentration 270 nM)
- TEST NAME: PBM binding z-score (relative to random genomic background probes); higher = stronger binding; sequences stand for … in GC…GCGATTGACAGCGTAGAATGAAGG
Documented PBM binding z-score across a set of sequences

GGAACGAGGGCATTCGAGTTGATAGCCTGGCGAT
3.28

Consider the record given below.
Ask: Which PBM binding z-score value is on record for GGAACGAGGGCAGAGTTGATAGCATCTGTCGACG ?
Reply: 0.314
